# SYSTEM_NAME: T1, recombinant human PVRIG-human IgG1 Fc fusion protein (human)
# T1 construct: no linker is told; also called human PVRIG-Fc fusion protein
# PROCEDURE_SUMMARY: SPR (Biacore), human PVRIG-human IgG1 Fc on chip, antibody in flow, 1:1 model
Below, each of the binders is paired with its reported koff value.

Example results:
BINDER	koff
Antibody 4-hu6 (antibody, human IgG4 S228P, kappa, V domains shown, Humanized Antibody 4; heavy chain IgG4 with S228P already in the entry; also called Antibody 4-hub [sic]) VH: EVQLVQSGAEVKKPGSSVKVSCKASGGTFSSFSIEWVRQAPGQGLEWIGEILPGSNSTNYNEKFKGKATFTADTSTNTAYMELSSLRSEDTAVYYCSSYWFAYWGQGTLVTVSS VL: DIVMTQSPDSLAVSLGERATINCKSSQSLLNSGNQKNYLAWYQQKPGQPPKLLIYGASTRESGVPDRFSGSGSGTDFTLTISSLQAEDVAVYYCQNAHSYPPTFGQGTKLEIKR	≤ 1e-06 s⁻¹
Antibody 4-hu7 (antibody, human IgG4 S228P, kappa, V domains shown, Humanized Antibody 4; heavy chain IgG4 with S228P already in the entry) VH: EVQLVQSGAEVKKPGSSVKVSCKASGYTFSSFSIEWVRQAPGQGLEWMGEILPGSNSTNYNEKFKGRVTITADESTSTAYMELSSLRSEDTAVYYCSSYWFAYWGQGTLVTVSS VL: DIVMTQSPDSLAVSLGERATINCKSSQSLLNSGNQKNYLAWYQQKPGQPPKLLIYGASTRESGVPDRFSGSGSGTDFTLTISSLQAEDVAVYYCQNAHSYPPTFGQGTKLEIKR	≤ 1e-06 s⁻¹

Asked: Could you tell me which koff is on file for Antibody 4-hu10 (antibody, human IgG4 S228P, kappa, V domains shown, Humanized Antibody 4; heavy chain IgG4 with S228P already in the entry) VH: EVQLVQSGAEVKKPGSSVKVSCKASGYTFSSFSIEWVRQAPGQGLEWIGEILPGSNSTNYNEKFKGRVTFTADTSTNTAYMELSSLRSEDTAVYYCSSYWFAYWGQGTLVTVSS VL: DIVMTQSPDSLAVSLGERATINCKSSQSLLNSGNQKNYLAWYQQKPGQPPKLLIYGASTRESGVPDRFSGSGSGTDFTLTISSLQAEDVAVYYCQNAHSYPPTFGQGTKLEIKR ?
Given back: ≤ 1e-06 s⁻¹

Data origin, for the record: patent US20230227572A1
